test system: EKVX; assay: NCI tumour cell line growth inhibition, 48 h
Calls of active or inactive are those of the source. No stated cut-off is given here; in the data, active = GI50 up to about 1.1 µM and inactive = higher.
Possible outcomes: TRUE = active, FALSE = inactive

compound: Oc1cc(O)c2c(c1)O[C@H](c1cc(O)c(O)c(O)c1)[C@H](O)C2 [EPIGALLOCATECHIN]
cat: FALSE
//
compound: COc1nc2c(N3CCCC3)nc(N3CCNCC3)nc2nc1NCc1ccccc1
cat: FALSE
//
compound: CC(=N/NC(=S)N1CCCCC1)/C(=N\NC(=S)N1CCCCC1)c1ccccc1
cat: FALSE
//
compound: CC(=O)OCC1=CC2CCC3C(C)(CCC[C@]3(C)COC(C)=O)C23CC[C@H]1C3 (some centres not stated)
cat: FALSE
//
compound: CC1=C2c3ccccc3N(C(=O)/C=C/C(=O)O)[C@H]2[C@H]2C(=O)OC(=O)[C@H]2C1
cat: FALSE
//
compound: COc1ccc(CCc2ccc(O)c(C(=O)O)c2)cc1OC
cat: FALSE
//
compound: Fc1ccccc1CN1COc2c(cc(Cl)c3cccnc23)C1
cat: TRUE
//
compound: N/N=C(\Cc1ccccc1)NN=C(N)N
cat: FALSE
//
compound: CC(C)(C)OC(=O)N[C@H]1CCN(C2CCCCC2)C1=O
cat: FALSE
//
compound: CC1=C(C)SC(=C2Sc3[n-]c(=O)[nH]c(=O)c3S2)S1.CCCC[N+](CCCC)(CCCC)CCCC
cat: FALSE
//
compound: COC(=O)C(C(=O)C(=O)Nc1ccc(C)cc1C)c1nc2ccc([N+](=O)[O-])cc2nc1O (configuration not stated)
cat: FALSE
//
compound: CC(C)(C)C(=O)N(C(=S)OCc1ccccn1)c1ccccc1
cat: FALSE
//
compound: Oc1ccc(-c2n[nH]c(S)n2)cc1
cat: FALSE
//
compound: COc1ccc(CC2COc3cc(O)cc(O)c3C2=O)cc1O (configuration not stated)
cat: FALSE
//
compound: O=c1[nH]cnc2c(COCCCO)c[nH]c12
cat: FALSE
//
compound: O=P(O)(O)CC1OC(CO)C(O)C1O (configuration not stated)
cat: FALSE
//
compound: O=C1O[C@H]2C3C4CCC(C4[C@@H]2I)[C@H]13 (some centres not stated)
cat: FALSE
//
compound: Cc1ccc(C(=O)C(C)N)cc1 (configuration not stated)
cat: FALSE
//
compound: COc1ccc(C(=O)c2c3cc(OC)c(OC)c(OC)c3cc[n+]2C)cc1
cat: FALSE
//
compound: COC(=O)/C=C\COCC1C2CCC(=O)C21 (configuration not stated)
cat: FALSE
//
compound: N#Cc1c(N2CCN(c3ccc([N+](=O)[O-])cc3)CC2)[n+]([O-])c2ccc(-c3ccc([N+](=O)[O-])cc3)cc2[n+]1[O-]
cat: FALSE
//
compound: CCN(CC)CCn1nc2c3c(c(NCCN)ccc31)Sc1cc(O)ccc1-2
cat: FALSE

----------
test system: SK-MEL-28; test: NCI tumour cell line growth inhibition, 48 h
Active and inactive are the calls of the source. Rule as the data show it: active = GI50 up to about 1.1 µM and inactive = higher.
Possible outcomes: active, inactive

compound: CC(=O)c1ccc2c(c1)CC1(C2)Cc2cc3c(cc2C1=O)CCC3 (stereo not given)
cat: inactive
//
compound: Nc1ccc2cc(S(=O)(=O)O)cc(O)c2c1/N=N/c1ccc(NC(=O)Nc2ccc(/N=N/c3c(N)ccc4cc(S(=O)(=O)O)cc(O)c34)c(S(=O)(=O)O)c2)cc1S(=O)(=O)O
cat: inactive
//
compound: CC(=O)OCC1=CC2CCC3C(C)(CCC[C@]3(C)COC(C)=O)C23CC[C@H]1C3 (stereo not given in full)
cat: inactive
//
compound: O=C1NC(c2cccc3ccccc23)Nc2ccccc21 (stereo not given)
cat: active
//
compound: CCCCCCCCOCC1S(=O)(=O)OCCOS1(=O)=O
cat: inactive
